Attribution: patent US6777176

# Measured On: enzyme I (phosphoenolpyruvate-protein-phosphatase, EC 2.7.3.9) of the bacterial phosphotransferase system (E. coli, UniProt P08839 1-575)
# Assay Comment: cell-based or functional assay
Hi, to clarify the labels: t covers inhibition IC50 from 500 µM upward, f covers anything below 500 µM.

binder="MRLLKTLCFGLCG [peptide 31]" cat=t
binder="RHRTLF [peptide 25]" cat=t
binder="RHYLLF [peptide 26]" cat=f
binder="DGARLHYLF [peptide 22]" cat=t
binder="RHITLF [peptide 28]" cat=f
binder="RHITSL [peptide 27]" cat=f
